Reference for the values: ChEMBL document CHEMBL2086280

Listed compounds paired with reported IC50
- Test system: MCF7
- method.summary: Cytotoxicity against human MCF7 cells after 6 days by SRB assay
- Assay type: functional, cell-based
- measurement.parameters: MCF7, 144 h
measured.endpoint: IC50

compound	assay.result
C[C@@H](CO)CC[C@H](O)[C@@H](C)[C@H]1[C@@H](O)C[C@H]2[C@@H]3CC=C4C[C@@H](O)CC[C@]4(C)[C@H]3[C@H](O)C[C@]12C	> 50 µg/mL
CC(=O)OC[C@H](C)CC[C@H](OC(C)=O)[C@@H](C)[C@H]1[C@@H](OC(C)=O)C[C@H]2[C@@H]3CC=C4C[C@@H](OC(C)=O)CC[C@]4(C)[C@H]3CC[C@]12C	11 µg/mL
CC(C)[C@H](O)[C@H](O)C[C@@H](C)[C@H]1[C@@H](O)C[C@H]2[C@@H]3C[C@@H](O)[C@H]4C[C@@H](O[C@@H]5O[C@H](CO[C@@H]6O[C@H](CO)[C@@H](O)[C@H](O)[C@H]6O)[C@@H](O)[C@H](O)[C@H]5O)CC[C@]4(C)[C@H]3CC[C@]12C [CHAMAELIROSIDE A]	> 50 µg/mL
CC(C)[C@H](O[C@@H]1O[C@H](C)[C@H](O)[C@H](O)[C@H]1O)[C@H](O)C[C@@H](C)[C@H]1[C@@H](O)C[C@H]2[C@@H]3CC(=O)[C@H]4C[C@@H](O[C@@H]5O[C@H](CO[C@@H]6O[C@H](CO)[C@@H](O)[C@H](O)[C@H]6O)[C@@H](O)[C@H](O)[C@H]5O)CC[C@]4(C)[C@H]3CC[C@]12C	> 50 µg/mL

====

- Tested on: MCF7
- method.summary: Cytotoxicity against human MCF7 cells after 6 days by SRB assay
- Assay type: functional, cell-based
- measurement.parameters: MCF7, 144 h

compound	IC50
CC(C)[C@H](O)[C@H](O)C[C@@H](C)[C@H]1[C@@H](O)C[C@H]2[C@@H]3CC(=O)[C@H]4C[C@@H](O[C@@H]5O[C@H](CO[C@@H]6O[C@H](CO)[C@@H](O)[C@H](O)[C@H]6O)[C@@H](O)[C@H](O)[C@H]5O)CC[C@]4(C)[C@H]3CC[C@]12C	> 50 µg/mL
CC(=O)O[C@@H]1[C@H](O)[C@@H](O)[C@H](O[C@@H](C(C)C)[C@H](O)C[C@@H](C)[C@H]2[C@@H](O)C[C@H]3[C@@H]4C[C@@H](O)[C@H]5C[C@@H](O[C@@H]6O[C@H](CO[C@@H]7O[C@H](CO)[C@@H](O)[C@H](O)[C@H]7O)[C@@H](O)[C@H](O)[C@H]6O)CC[C@]5(C)[C@H]4CC[C@]23C)O[C@@H]1C [CHAMAELIROSIDE C]	> 50 µg/mL

====

Measured IC50 of individual entries
- Test system: NFF
- method.summary: Cytotoxicity against human NFF cells after 6 days by SRB assay
- Assay type: cell-based
- measurement.parameters: 144 h

compound	IC50
CC(C)[C@H](O)[C@H](O)C[C@@H](C)[C@H]1[C@@H](O[C@@H]2O[C@H](CO)[C@@H](O)[C@H](O)[C@H]2O)C[C@H]2[C@@H]3C[C@@H](O)[C@H]4C[C@@H](O[C@@H]5O[C@H](CO[C@@H]6O[C@H](CO)[C@@H](O)[C@H](O)[C@H]6O)[C@@H](O)[C@H](O)[C@H]5O)CC[C@]4(C)[C@H]3CC[C@]12C [CHAMAELIROSIDE E]	> 50 µg/mL
CC(C)[C@H](O)[C@H](O)C[C@@H](C)[C@H]1[C@@H](O)C[C@H]2[C@@H]3CC(=O)[C@H]4C[C@@H](O[C@@H]5O[C@H](CO[C@@H]6O[C@H](CO)[C@@H](O)[C@H](O)[C@H]6O)[C@@H](O)[C@H](O)[C@H]5O)CC[C@]4(C)[C@H]3CC[C@]12C	> 50 µg/mL
CC(=O)OC[C@H](C)CC[C@H](OC(C)=O)[C@@H](C)[C@H]1[C@@H](OC(C)=O)C[C@H]2[C@@H]3CC=C4C[C@@H](OC(C)=O)CC[C@]4(C)[C@H]3CC[C@]12C	12 µg/mL
C[C@@H](CO)CC[C@@H](O)[C@@H](C)[C@H]1[C@@H](O)C[C@H]2[C@@H]3CC=C4C[C@@H](O)CC[C@]4(C)[C@H]3CC[C@]12C	> 50 µg/mL
